biological target: Receptor-interacting serine/threonine-protein kinase 2 (Homo sapiens); details: at 10 µM;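 note: residual kinase activity of the enzyme remaining, given as percent of control, assayed in 8 mM MOPS pH 7.0 buffer with 0.2 mM EDTA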
Description: Millipore: Percentage of residual kinase activity of RIPK2 at 10uM relative to control. Control inhibitor: Phosphoric acid* at 0.3uM. Buffer: 8 mM MOPS pH 7.0, 0.2 mM EDTA
ATTRIBUTE MEASURED: residual activity (%)
Please reply with the bare figure in % and do not write the unit itself.

INSERT INTO assay_data (compound_structure_string, observed_value) VALUES
  ('CCN(CC)C(=O)c1ccc(Nc2nc(OCC3CCCCC3)c3nc[nH]c3n2)cc1', 41),
  ('O=C(Nc1cccc(Nc2nccc(Nc3cccc(C(F)(F)F)c3)n2)c1)C1CC1', 71),
  ('O=C1Nc2cc(Br)ccc2/C1=C1/Nc2ccccc2/C1=N\O', 85),
  ('N#CC(C#N)=C(N)/C(C#N)=C/c1ccc(O)cc1', 64),
  ('CN(C)c1ccc(/C=C2\C(=O)Nc3ccccc32)cc1', 83),
  ('Cc1ccc(S(=O)(=O)/C=C/C#N)cc1', 88);

Exercise: Specify residual activity for `c1ccc(-c2n[nH]c3c2oc2ccccc23)cc1` and stop.
Solution: 64

Exercise: # return recorded residual activity for input `O=C1NC(=O)/C(=C/c2ccc3c(c2)OC(F)(F)O3)S1`
Solution: 83

Exercise: Give me measured residual activity, please, for this molecule: `O=C1NC(=O)c2cc(Nc3ccc(F)cc3)c(Nc3ccc(F)cc3)cc21`
Solution: 42

Exercise: Supply measured residual activity of `CCOc1cc2ncnc(Nc3cccc(Br)c3)c2cc1OCC` in your reply.
Solution: 12

Exercise: Give residual activity for `O=C1NC(=O)/C(=C\c2ccc3nccnc3c2)S1`
Solution: 21

Exercise: Supply reported residual activity belonging to this molecule: `O=[N+]([O-])c1ccc(-c2nc(-c3ccc(F)cc3)c(-c3ccncc3)[nH]2)cc1`
Solution: 25

Exercise: Item `Ic1cccc(CSc2nnc(-c3ccncc3)o2)c1` : provide residual activity
Solution: 78

Exercise: Please give measured residual activity of the following entry: `COc1ccc(C(=O)Nc2sc3c(c2C(N)=O)CCCC3)cc1OC`
Solution: 71
